experiment: total protein half-life in vivo (active degradation + dilution); higher = more stable protein; conditions: wild type E. coli NCM3722; growth: N-lim chemostat; doubling time 12 h
Measurement Name: total protein half-life in vivo (h)

[[record]]
seq_text = "MTQPVLDIQQLHLSFPGFNGDVHALNNVSLQINRGEIVGLVGESGSGKSVTAMLIMRLLPTGSYCVHRGQISLLGEDVLNAREKQLRQWRGARVAMIFQEPMTALNPTRRIGLQMMDVIRHHQPISRREARAKAIDLLEEMQIPDAVEVMSRYPFELSGGMRQRVMIALAFSCEPQLIIADEPTTALDVTVQLQVLRLLKHKARASGTAVLFISHDMAVVSQLCDSVYVMYAGSVIESGVTADVIHHPRHPYTIGLLQCAPEHGVPRQLLPAIPGTVPNLTHLPDGCAFRDRCYAAGAQCENVPALTACGDNNQRCACWYPQQEVISV"
measurement_name = "total protein half-life in vivo"
unit_info = "h"
obs_value = 7.62

[[record]]
seq_text = "MKICLIDETGTGDGALSVLAARWGLEHDEDNLMALVLTPEHLELRKRDEPKLGGIFVDFVGGAMAHRRKFGGGRGEAVAKAVGIKGDYLPDVVDATAGLGRDAFVLASVGCRVRMLERNPVVAALLDDGLARGYADAEIGGWLQERLQLIHASSLTALTDITPRPQVVYLDPMFPHKQKSALVKKEMRVFQSLVGPDLDADGLLEPARLLATKRVVVKRPDYAPPLANVATPNAVVTKGHRFDIYAGTPV"
measurement_name = "total protein half-life in vivo"
unit_info = "h"
obs_value = 11.5

[[record]]
seq_text = "MGQRIPVTLGNIAPLSLRPFQPGRIALVCEGGGQRGIFTAGVLDEFMRAQFNPFDLYLGTSAGAQNLSAFICNQPGYARKVIMRYTTKREFFDPLRFVRGGNLIDLDWLVEATASQMPLQMDTAARLFDSGKSFYMCACRQDDYAPNYFLPTKQNWLDVIRASSAIPGFYRSGVSLEGINYLDGGISDAIPVKEAARQGAKTLVVIRTVPSQMYYTPQWFKRMERWLGDSSLQPLVNLVQHHETSYRDIQQFIEKPPGKLRIFEIYPPKPLHSIALGSRIPALREDYKLGRLCGRYFLATVGKLLTEKAPLTRHLVPVVTPESIVIPPAPVANDTLVAEVSDAPQANDPTFNNEDLA"
measurement_name = "total protein half-life in vivo"
unit_info = "h"
obs_value = 1.77


----------
assay: total protein half-life in vivo (active degradation + dilution); higher = more stable protein; details: wild type E. coli NCM3722; growth: N-lim chemostat; doubling time 6 h
Below, each of the sequences is paired with its reported total protein half-life in vivo value.
Measurement Name: total protein half-life in vivo (h)

[[record]]
seq_text = "MWYQKTLTLSAKSRGFHLVTDEILNQLADMPRVNIGLLHLLLQHTSASLTLNENCDPTVRHDMERFFLRTVPDNGNYEHDYEGADDMPSHIKSSMLGTSLVLPVHKGRIQTGTWQGIWLGEHRIHGGSRRIIATLQGE [P0AF48]"
measurement_name = "total protein half-life in vivo"
unit_info = "h"
obs_value = 3.98

[[record]]
seq_text = "MNKFEDIRGVAFDLDGTLVDSAPGLAAAVDMALYALELPVAGEERVITWIGNGADVLMERALTWARQERATQRKTMGKPPVDDDIPAEEQVRILRKLFDRYYGEVAEEGTFLFPHVADTLGALQAKGLPLGLVTNKPTPFVAPLLEALDIAKYFSVVIGGDDVQNKKPHPDPLLLVAERMGIAPQQMLFVGDSRNDIQAAKAAGCPSVGLTYGYNYGEAIDLSQPDVIYQSINDLLPALGLPHSENQESKND"
measurement_name = "total protein half-life in vivo"
unit_info = "h"
obs_value = 2.87

[[record]]
seq_text = "MVAPIPAKRGRKPAVATAPATGQVQSLTRGLKLLEWIAESNGSVALTELAQQAGLPNSTTHRLLTTMQQQGFVRQVGELGHWAIGAHAFMVGSSFLQSRNLLAIVHPILRNLMEESGETVNMAVLDQSDHEAIIIDQVQCTHLMRMSAPIGGKLPMHASGAGKAFLAQLSEEQVTKLLHRKGLHAYTHATLVSPVHLKEDLAQTRKRGYSFDDEEHALGLRCLAACIFDEHREPFAAISISGPISRITDDRVTEFGAMVIKAAKEVTLAYGGMR"
measurement_name = "total protein half-life in vivo"
unit_info = "h"
obs_value = 5.51


----------
test: total protein half-life in vivo (active degradation + dilution); higher = more stable protein; settings: E. coli NCM3722 delta-clpP; growth: N-lim chemostat; doubling time 6 h
Lab note: compare total protein half-life in vivo against 4 h. Equal or greater, write True. Smaller, write False.

[[record]]
seq_text = "MTHDNKLQVEAIKRGTVIDHIPAQIGFKLLSLFKLTETDQRITIGLNLPSGEMGRKDLIKIENTFLSEDQVDQLALYAPQATVNRIDNYEVVGKSRPSLPERIDNVLVCPNSNCISHAEPVSSSFAVRKRANDIALKCKYCEKEFSHNVVLAN [P0A7F3]"
answer_label = "True"

[[record]]
seq_text = "MRWLPFIAIFLYVYIEISIFIQVAHVLGVLLTLVLVIFTSVIGMSLVRNQGFKNFVLMQQKMAAGENPAAEMIKSVSLIIAGLLLLLPGFFTDFLGLLLLLPPVQKHLTVKLMPHLRFSRMPGGGFSAGTGGGNTFDGEYQRKDDERDRLDHKDDRQD"
answer_label = "True"

[[record]]
seq_text = "MAFKIWQIGLHLQQQEAVAVAIVRGAKECFLQRWWRLPLENDIIKDGRIVDAQQLAKTLLPWSRELPQRHHIMLAFPASRTLQRSFPRPSMSLGEREQTAWLSGTMARELDMDPDSLRFDYSEDSLSPAYNVTAAQSKELATLLTLAERLRVHVSAITPDASALQRFLPFLPSHQQCLAWRDNEQWLWATRYSWGRKLAVGMTSAKELAAALSVDPESVAICGEGGFDPWEAVSVRQPPLPPPGGDFAIALGLALGKAY"
answer_label = "False"

[[record]]
seq_text = "MSAGRLNKKSLGIVMLLSVGLLLAGCSGSKSSDTGTYSGSVYTVKRGDTLYRISRTTGTSVKELARLNGISPPYTIEVGQKLKLGGAKSSSITRKSTAKSTTKTASVTPSSAVPKSSWPPVGQRCWLWPTTGKVIMPYSTADGGNKGIDISAPRGTPIYAAGAGKVVYVGNQLRGYGNLIMIKHSEDYITAYAHNDTMLVNNGQSVKAGQKIATMGSTDAASVRLHFQIRYRATAIDPLRYLPPQGSKPKC"
answer_label = "True"

[[record]]
seq_text = "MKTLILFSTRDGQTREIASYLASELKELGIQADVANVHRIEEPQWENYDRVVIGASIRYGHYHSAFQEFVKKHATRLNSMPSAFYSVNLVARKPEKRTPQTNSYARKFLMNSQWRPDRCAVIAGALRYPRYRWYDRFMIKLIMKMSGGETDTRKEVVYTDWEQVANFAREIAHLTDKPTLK [P0ACB4]"
answer_label = "True"

[[record]]
seq_text = "MEYQHWLREAISQLQASESPRRDAEILLEHVTGRGRTFILAFGETQLTDEQCQQLDALLTRRRDGEPIAHLTGVREFWSLPLFVSPATLIPRPDTECLVEQALARLPEQPCRILDLGTGTGAIALALASERPDCEIIAVDRMPDAVSLAQRNAQHLAIKNIHILQSDWFSALAGQQFAMIVSNPPYIDEQDPHLQQGDVRFEPLTALVAADSGMADIVHIIEQSRNALVSGGFLLLEHGWQQGEAVRQAFILAGYHDVETCRDYGDNERVTLGRYYQ [P0ACC1]"
answer_label = "False"

[[record]]
seq_text = "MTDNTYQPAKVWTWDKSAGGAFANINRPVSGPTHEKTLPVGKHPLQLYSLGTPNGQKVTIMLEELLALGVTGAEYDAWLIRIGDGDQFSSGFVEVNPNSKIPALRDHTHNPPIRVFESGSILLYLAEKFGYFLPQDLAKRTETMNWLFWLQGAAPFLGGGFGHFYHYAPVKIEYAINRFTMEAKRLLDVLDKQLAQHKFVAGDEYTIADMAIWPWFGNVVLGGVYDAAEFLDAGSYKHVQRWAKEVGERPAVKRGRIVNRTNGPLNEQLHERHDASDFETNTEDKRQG"
answer_label = "True"

[[record]]
seq_text = "MSKSLQKPTILNVETVARSRLFTVESVDLEFSNGVRRVYERMRPTNREAVMIVPIVDDHLILIREYAVGTESYELGFSKGLIDPGESVYEAANRELKEEVGFGANDLTFLKKLSMAPSYFSSKMNIVVAQDLYPESLEGDEPEPLPQVRWPLAHMMDLLEDPDFNEARNVSALFLVREWLKGQGRV"
answer_label = "True"

[[record]]
seq_text = "MQKQAELYRGKAKTVYSTENPDLLVLEFRNDTSAGDGARIEQFDRKGMVNNKFNYFIMSKLAEAGIPTQMERLLSDTECLVKKLDMVPVECVVRNRAAGSLVKRLGIEEGIELNPPLFDLFLKNDAMHDPMVNESYCETFGWVSKENLARMKELTYKANDVLKKLFDDAGLILVDFKLEFGLYKGEVVLGDEFSPDGSRLWDKETLEKMDKDRFRQSLGGLIEAYEAVARRLGVQLD [P0A7D7]"
answer_label = "True"

[[record]]
seq_text = "MVKVYAPASSANMSVGFDVLGAAVTPVDGALLGDVVTVEAAETFSLNNLGRFADKLPSEPRENIVYQCWERFCQELGKQIPVAMTLEKNMPIGSGLGSSACSVVAALMAMNEHCGKPLNDTRLLALMGELEGRISGSIHYDNVAPCFLGGMQLMIEENDIISQQVPGFDEWLWVLAYPGIKVSTAEARAILPAQYRRQDCIAHGRHLAGFIHACYSRQPELAAKLMKDVIAEPYRERLLPGFRQARQAVAEIGAVASGISGSGPTLFALCDKPETAQRVADWLGKNYLQNQEGFVHICRLDTAGARVLEN"
answer_label = "False"

